ASSAY METHOD TEXT: Plasma and brain CX157 concentrations after oral dosing in rats
EXPERIMENTAL SETUP: male, Sprague-Dawley, rat, brain, po, 5 mg/kg
QUANTITY NAME: concentration at 18 h (ng/mL)

> print(dat)
                                   molecule          quantity.name  readout.unit  reported
1  O=S1(=O)c2ccc(F)cc2Oc2cc(OCC(F)(F)F)ccc21 [CX157]  concentration at 18 h         ng/mL       140

---

ASSAY METHOD TEXT: Phase I 14-day twice-daily pharmacokinetics
EXPERIMENTAL SETUP: human, plasma, oral, 10 mg, Cmin, healthy volunteers, 10 mg twice daily, Day 1, mean
QUANTITY NAME: concentration at 1 day (ng/mL)

> print(dat)
                                   compound  reported
1  O=S1(=O)c2ccc(F)cc2Oc2cc(OCC(F)(F)F)ccc21 [CX157]       0.6

---

ASSAY METHOD TEXT: Phase I 14-day twice-daily pharmacokinetics
EXPERIMENTAL SETUP: human, plasma, oral, 20 mg, AUClast, healthy volunteers, 20 mg twice daily, Day 14, mean
QUANTITY NAME: AUC(0-t) (ng·h/mL)

> print(dat)
                                        smi  reported
1  O=S1(=O)c2ccc(F)cc2Oc2cc(OCC(F)(F)F)ccc21       191

---

ASSAY METHOD TEXT: Plasma and brain CX157 concentrations after oral dosing in rats
EXPERIMENTAL SETUP: male, Sprague-Dawley, rat, brain, po, 1 mg/kg
QUANTITY NAME: concentration at 24 h (ng/mL)

> print(dat)
                                        smi          quantity.name  readout.unit  reported
1  O=S1(=O)c2ccc(F)cc2Oc2cc(OCC(F)(F)F)ccc21  concentration at 24 h         ng/mL      13.2

---

ASSAY METHOD TEXT: Phase I 14-day twice-daily pharmacokinetics
EXPERIMENTAL SETUP: human, plasma, oral, 10 mg, Tmax, healthy volunteers, 10 mg twice daily, Day 14, median
Experimental: Methods: The study was a Phase I, single-center, randomized, parallel-group, multiple-dose, placebo-controlled, pharmacodynamic, pharmacokinetic and safety study in healthy volunteers. To obtain 24 enrolled subjects, screening procedures and inclusion/exclusion criteria were evaluated for 54 subjects during a variable screening period of up to 28 days. Once enrolled, subjects were randomized to either CX157 10 mg, 20 mg or 40 mg or matching placebo administered twice daily for 14 consecutive days. […]
QUANTITY NAME: Tmax

> print(dat)
                                        smi  reported
1  O=S1(=O)c2ccc(F)cc2Oc2cc(OCC(F)(F)F)ccc21       1 h

---

ASSAY METHOD TEXT: Plasma and brain CX157 concentrations after oral dosing in rats
EXPERIMENTAL SETUP: male, Sprague-Dawley, rat, brain and plasma, po, 5 mg/kg, mean brain/plasma ratio of CX157 concentrations, 5 mg/kg oral, 8 h
QUANTITY NAME: Kp at 8 h

> print(dat)
                                   compound  quantity.name  reported
1  O=S1(=O)c2ccc(F)cc2Oc2cc(OCC(F)(F)F)ccc21 [CX157]      Kp at 8 h         5

---

ASSAY METHOD TEXT: Phase I 14-day twice-daily pharmacokinetics
EXPERIMENTAL SETUP: human, plasma, oral, 20 mg, Cmax, healthy volunteers, 20 mg twice daily, Day 14, mean
QUANTITY NAME: Cmax (ng/mL)

> print(dat)
                                   compound  quantity.name  reported
1  O=S1(=O)c2ccc(F)cc2Oc2cc(OCC(F)(F)F)ccc21 [CX157]           Cmax      30.1

---

ASSAY METHOD TEXT: Phase 1 single dose escalation pharmacokinetics
EXPERIMENTAL SETUP: male, human, plasma, po, 40 mg
QUANTITY NAME: Tmax (min)

> print(dat)
                                        smi  readout.unit  reported
1  O=S1(=O)c2ccc(F)cc2Oc2cc(OCC(F)(F)F)ccc21           min      49.8

---

ASSAY METHOD TEXT: Plasma and brain CX157 concentrations after oral dosing in rats
EXPERIMENTAL SETUP: male, Sprague-Dawley, rat, brain and plasma, po, 5 mg/kg, mean brain/plasma ratio of CX157 concentrations, 5 mg/kg oral, 18 h
QUANTITY NAME: Kp at 18 h

> print(dat)
                                        smi  reported
1  O=S1(=O)c2ccc(F)cc2Oc2cc(OCC(F)(F)F)ccc21       3.7

---

ASSAY METHOD TEXT: Plasma and brain CX157 concentrations after oral dosing in rats
EXPERIMENTAL SETUP: male, Sprague-Dawley, rat, brain/plasma, po, 1 mg/kg, brain concentration higher than plasma concentration, e.g. 4 hours after a 1 mg/kg oral dose
QUANTITY NAME: Kp at 4 h

> print(dat)
                                   compound  quantity.name  reported
1  O=S1(=O)c2ccc(F)cc2Oc2cc(OCC(F)(F)F)ccc21 [CX157]      Kp at 4 h      ≤ 10

---

ASSAY METHOD TEXT: Phase 1 single dose escalation pharmacokinetics
EXPERIMENTAL SETUP: male, human, plasma, po, 15 mg
QUANTITY NAME: half-life (h)

> print(dat)
                                   compound  reported
1  O=S1(=O)c2ccc(F)cc2Oc2cc(OCC(F)(F)F)ccc21 [CX157]      13.3

---

ASSAY METHOD TEXT: Phase 1 single dose escalation pharmacokinetics
EXPERIMENTAL SETUP: male, human, plasma, po, 15 mg, AUClast, healthy males, single oral 15 mg, mean
QUANTITY NAME: AUC(0-t) (ng·h/mL)

> print(dat)
                                   compound  quantity.name  readout.unit  reported
1  O=S1(=O)c2ccc(F)cc2Oc2cc(OCC(F)(F)F)ccc21 [CX157]       AUC(0-t)       ng·h/mL       122

---

ASSAY METHOD TEXT: Phase I 14-day twice-daily pharmacokinetics
EXPERIMENTAL SETUP: human, plasma, oral, 40 mg, C12h, healthy volunteers, 40 mg twice daily, Day 1, mean
QUANTITY NAME: concentration at 12 h (ng/mL)

> print(dat)
                                        smi  readout.unit  reported
1  O=S1(=O)c2ccc(F)cc2Oc2cc(OCC(F)(F)F)ccc21         ng/mL      2.52

---

ASSAY METHOD TEXT: Phase I 14-day twice-daily pharmacokinetics
EXPERIMENTAL SETUP: human, plasma, oral, 20 mg, Tmax, healthy volunteers, 20 mg twice daily, Day 14, median
QUANTITY NAME: Tmax (h)

> print(dat)
                                   molecule  reported
1  O=S1(=O)c2ccc(F)cc2Oc2cc(OCC(F)(F)F)ccc21 [CX157]       1.5

---

ASSAY METHOD TEXT: Plasma and brain CX157 concentrations after oral dosing in rats
EXPERIMENTAL SETUP: male, Sprague-Dawley, rat, plasma, po, 1 mg/kg
QUANTITY NAME: concentration at 2 h

> print(dat)
                                   molecule         quantity.name  reported
1  O=S1(=O)c2ccc(F)cc2Oc2cc(OCC(F)(F)F)ccc21 [CX157]  concentration at 2 h  20 ng/mL

---

ASSAY METHOD TEXT: Plasma and brain CX157 concentrations after oral dosing in rats
EXPERIMENTAL SETUP: male, Sprague-Dawley, rat, plasma, po, 1 mg/kg
QUANTITY NAME: concentration at 4 h (ng/mL)

> print(dat)
                                        smi         quantity.name  reported
1  O=S1(=O)c2ccc(F)cc2Oc2cc(OCC(F)(F)F)ccc21  concentration at 4 h       9.9

---

ASSAY METHOD TEXT: Plasma and brain CX157 concentrations after oral dosing in rats
EXPERIMENTAL SETUP: male, Sprague-Dawley, rat, plasma, po, 10 mg/kg
QUANTITY NAME: concentration at 24 h (ng/mL)

> print(dat)
                                   molecule          quantity.name  readout.unit  reported
1  O=S1(=O)c2ccc(F)cc2Oc2cc(OCC(F)(F)F)ccc21 [CX157]  concentration at 24 h         ng/mL       5.4
